The reported measurements were obtained from paper PMC5818060.

# targetEntity: T1, His-DDX3X^414-582 (human, UniProt O00571 414-582)
# T1 construct: DEAD box RNA helicase 3 X-linked (DDX3X), human, UniProt O00571, C-terminal helicase domain, aa 414-582; Named without the His tag in the BLItz methods; also called C-terminal helicase domain of DDX3X; source: dialyzed in 50 mM HEPES pH 8 for ELISA and FTS
# T1 sequence (O00571 414-582): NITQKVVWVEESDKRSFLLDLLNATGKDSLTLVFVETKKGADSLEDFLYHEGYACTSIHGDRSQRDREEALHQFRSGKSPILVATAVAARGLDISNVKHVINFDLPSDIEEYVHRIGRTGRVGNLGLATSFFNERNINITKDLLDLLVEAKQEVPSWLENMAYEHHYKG
# measurementNotes: fluorescence thermal shift (FTS) assay; FTS with varying concentrations of peptide; melting temperatures fitted to single site or simple cooperative ligand binding, preferred model chosen
# conditionParameters: both partners purified
Ends that are not written are not given here. * marks the point of attachment. Biotin = O=C1N[C@H]2[C@H](CS[C@H]2CCCCC(=O)*)N1
parameter: Kd (µM)

# binder, numericReadout
data = [
    ("Biotin-SGSGMELRVGNRYRLGRKI (four amino acid spacer between biotin and the peptide; casein kinase 1 delta (CK1δ), human, UniProt P48730; also called P1; source: synthetic peptide (peptide library), pre-dissolved in DMSO; not shown: biotin, N-terminal, kept) [CK1δ-derived peptide δ-1]", 15.6),
]
